Target or test system: human HDAC6 (hHDAC6) (Homo sapiens)
Sequence (Q9UBN7 1-1215): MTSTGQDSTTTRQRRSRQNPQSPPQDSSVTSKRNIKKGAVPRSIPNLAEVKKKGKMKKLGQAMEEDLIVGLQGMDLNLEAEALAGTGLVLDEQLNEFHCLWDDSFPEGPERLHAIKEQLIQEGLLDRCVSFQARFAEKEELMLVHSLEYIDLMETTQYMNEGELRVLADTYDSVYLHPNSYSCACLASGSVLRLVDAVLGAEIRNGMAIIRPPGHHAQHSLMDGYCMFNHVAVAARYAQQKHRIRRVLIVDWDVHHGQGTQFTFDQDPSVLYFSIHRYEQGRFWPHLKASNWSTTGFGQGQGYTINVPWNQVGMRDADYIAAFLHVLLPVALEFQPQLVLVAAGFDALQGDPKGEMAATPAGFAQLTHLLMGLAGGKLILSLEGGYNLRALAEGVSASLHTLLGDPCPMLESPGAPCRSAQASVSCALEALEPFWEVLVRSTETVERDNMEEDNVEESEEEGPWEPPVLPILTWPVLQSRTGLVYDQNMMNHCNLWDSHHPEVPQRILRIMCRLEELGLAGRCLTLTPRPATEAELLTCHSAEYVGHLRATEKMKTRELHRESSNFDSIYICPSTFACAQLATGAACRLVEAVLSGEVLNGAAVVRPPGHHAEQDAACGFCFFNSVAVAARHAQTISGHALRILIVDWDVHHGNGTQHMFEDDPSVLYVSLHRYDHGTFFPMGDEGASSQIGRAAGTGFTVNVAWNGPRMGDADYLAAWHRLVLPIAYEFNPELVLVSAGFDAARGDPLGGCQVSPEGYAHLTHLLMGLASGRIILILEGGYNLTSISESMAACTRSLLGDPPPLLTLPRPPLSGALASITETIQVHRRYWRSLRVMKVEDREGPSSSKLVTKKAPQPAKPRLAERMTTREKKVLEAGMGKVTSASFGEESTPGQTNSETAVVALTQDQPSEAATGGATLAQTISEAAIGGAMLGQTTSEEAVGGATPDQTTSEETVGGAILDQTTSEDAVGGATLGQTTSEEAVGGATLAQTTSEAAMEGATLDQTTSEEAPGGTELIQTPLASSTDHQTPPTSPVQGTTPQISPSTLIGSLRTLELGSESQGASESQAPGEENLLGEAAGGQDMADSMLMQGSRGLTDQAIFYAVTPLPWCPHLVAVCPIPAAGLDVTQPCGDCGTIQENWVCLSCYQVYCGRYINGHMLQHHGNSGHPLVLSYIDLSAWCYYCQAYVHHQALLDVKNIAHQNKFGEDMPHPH
Assay comment: In vitro testing on hHDAC6
Property measured: Selectivity index (SI) = hHDAC1/hHDAC6

>  <Item smiles>
CC(C)(C)c1ccc(C(=O)N(CC(=O)NCc2ccccc2)Cc2ccc(C(=O)NO)cc2)cc1

>  <Result>
<1

$$$$
>  <Item smiles>
CC(C)c1ccc(C(=O)N(CC(=O)NCc2ccccc2)Cc2ccc(C(=O)NO)cc2)cc1

>  <Result>
<1

$$$$
>  <Item smiles>
CN(C)c1ccc(C(=O)N(CC(=O)NCc2ccccc2)Cc2ccc(C(=O)NO)cc2)cc1

>  <Result>
<1

$$$$

Hey, just so you know, these numbers are from paper PMC6502651.
